Origin of the recorded values: paper PMC6413085

# PROTOCOL_SUMMARY: Pharmacokinetic study of DPTM in rats after i.v., i.m. and p.o. administration (HPLC-MS/MS, non-compartmental)
# Assay type: in vivo
# APPLIED_CONDITIONS: Sprague-Dawley, plasma, iv; rat, 75 mg/kg
REPORTED_ENDPOINT: clearance (mL/min/kg)
Numbers only, in mL/min/kg.

Which clearance is reported for this compound? C=CC1(C)CC(OC(=O)CSc2nc(N)cc(N)n2)C2(C)C(C)CCC3(CCC(=O)C32)C(C)C1O (stereo not shown) [DPTM]
0.5

====

# PROTOCOL_SUMMARY: Pharmacokinetic study of DPTM in rats after i.v., i.m. and p.o. administration (HPLC-MS/MS, non-compartmental)
# Assay type: in vivo
# APPLIED_CONDITIONS: Sprague-Dawley, plasma, iv; rat, i.v., 75 mg/kg; read-out: MRT0–t
REPORTED_ENDPOINT: MRT last (h)
One number for each entry, in h.

Which MRT last is reported for this compound? C=CC1(C)CC(OC(=O)CSc2nc(N)cc(N)n2)C2(C)C(C)CCC3(CCC(=O)C32)C(C)C1O (stereo not shown)
1.5
